# reported selectivity ratio; entries follow
assay: Therapeutic index, ratio of CC50 for African green monkey Vero cells to IC50 for Herpes simplex virus 1 KOS; type: cell-based; details: read-out: Ratio CC50/IC50

Some entries whose results are on file:
*Q* Give the reported value of selectivity ratio for this record: CC1=C(C(=O)Nc2ccccc2Cl)C(c2cnc(CS)n2NCc2ccccc2)NC(=O)N1 (stereo not given)
*A* < 1

*Q* Give the reported value of selectivity ratio for this record: CC1=C(C(=O)Nc2cccc(Cl)c2)C(c2cnc(CS)n2Nc2ccccc2)NC(=O)N1 (stereo not given)
*A* < 0.9

*Q* Give the reported value of selectivity ratio for this record: COC(=O)C1=C(C)NC(=S)NC1c1cccs1 (stereo not given)
*A* > 1

*Q* Give the reported value of selectivity ratio for this record: CC1=C(C(=O)NC2CCCCC2)C(c2ccccc2)NC(=O)N1 (stereo not given)
*A* > 1

***
*Q* Give the reported value of selectivity ratio for this record: CC1=C(C(=O)Nc2ccc(Cl)cc2)C(c2cnc(CS)n2Nc2ccccc2)NC(=O)N1 (stereo not given)
*A* > 1
